Collected THP-1 IC50 values appear next to each entry.
Biological target: T1, TNFR1 on THP-1 Lucia NF-kB reporter cells (UniProt P19438 30-455, limits assumed)
T1 sequence (looked up): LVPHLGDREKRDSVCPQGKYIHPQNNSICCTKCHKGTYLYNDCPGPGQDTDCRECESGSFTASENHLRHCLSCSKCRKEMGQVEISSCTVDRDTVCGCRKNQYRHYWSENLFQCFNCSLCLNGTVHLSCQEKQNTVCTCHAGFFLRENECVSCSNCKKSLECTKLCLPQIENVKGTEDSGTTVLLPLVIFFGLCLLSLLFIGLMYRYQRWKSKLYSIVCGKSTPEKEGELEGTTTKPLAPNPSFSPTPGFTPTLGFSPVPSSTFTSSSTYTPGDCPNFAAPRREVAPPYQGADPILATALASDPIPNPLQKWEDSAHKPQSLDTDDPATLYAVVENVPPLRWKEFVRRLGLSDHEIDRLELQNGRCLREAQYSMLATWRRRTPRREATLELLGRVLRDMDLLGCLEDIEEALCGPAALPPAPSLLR
Test: cell-based or functional assay
Square brackets hold non-standard residues; d marks the D form. Trp(βS-Me,7-OMe) = COc1cccc2c([C@H](C)[C@H](N)C(=O)O)c[nH]c12; Trp(7-Cl) = N[C@@H](Cc1c[nH]c2c(Cl)cccc12)C(=O)O; Phe(4-COOH) = N[C@@H](Cc1ccc(C(=O)O)cc1)C(=O)O; 4Pal = N[C@@H](Cc1ccncc1)C(=O)O; NMeE = CN[C@@H](CCC(=O)O)C(=O)O; αMeS = C[C@](N)(CO)C(=O)O; Nle = CCCC[C@H](N)C(=O)O; Pip2c = not defined here; TZAla = not defined here; Sar = CNCC(=O)O
Report only the number, with the unit nM understood.

1. cyclo([bhcLeu][Nle][4Pal][Pip2c]W[NMeE]N[4Pal][Trp(7-Cl)][αMeS][Phe(4-COOH)][Tyr3OMe][Sar][Trp(βS-Me,7-OMe)]) (reading uncertain; also: printed as cyclo(bhcLeu-Nle-4Pal-Pip2c-W-NMeE-N-4Pal-Trp7Cl-aMeS-Phe4COOH-Tyr3OMe-Sar-SbMeW7OMe)) [SEQ ID NO. 24] | 0.7

The measured THP-1 IC50 associated with cyclo([bhcLeu][Nle][4Pal][Pip2c]W[NMeE]N[TZAla][Trp(7-Cl)][αMeS][Phe(4-COOH)]Y[Sar][Trp(βS-Me,7-OMe)]) (reading uncertain; also: printed as cyclo(bhcLeu-Nle-4Pal-Pip2c-W-NMeE-N-TZAla-Trp7Cl-aMeS-Phe4COOH-Y-Sar-SbMeW7OMe)) [SEQ ID NO. 138] reads 2
